# TGT: T1, soluble Macaca fascicularis CTLA-4 expressed with a C-terminal myc-myc-polyhistidine tag (Macaca fascicularis)
# T1 construct: soluble protein; also called mf CTLA-4.mmh; mfCTLA4.mmh
# T1 chain: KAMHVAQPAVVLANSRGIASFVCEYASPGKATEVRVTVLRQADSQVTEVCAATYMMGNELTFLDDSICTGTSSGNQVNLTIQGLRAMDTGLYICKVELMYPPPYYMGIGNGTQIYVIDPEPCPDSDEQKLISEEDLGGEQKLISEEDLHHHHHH
# EXPERIMENTAL DETAILS: SPR, mAb capture, 25 C
Some binders, each annotated with its measured kon.
Form entry: value (M⁻¹ s⁻¹) — number only.

Exam item: Given H1H19313P (antibody, human IgG1, V domains shown) VH: QITLKESGPTLVKPTQTLTLTCTFSGFSLSTSGVGVGWIRQPPGVALEWLALIYWNDDKRFSPSLKSRLTITKDTSKNQVVLTMTNMDPVDTATYYCAHRRLGLYYFDYWGQGTLVTVSS VL: DIQLTQSPSFLSASVGDRVTITCWASQGISSYLAWYQQKPGKAPKLLIYAASTLQSGVPSRFSGSGSGTEFTLTISSLQPEDFATYYCQQVHIYPFTFGPGTKVDIK , respond with its kon.
Marked response: 475000

Exam item: Report kon for H1H19281P (antibody, human IgG1, V domains shown) VH: QVQLVESGGGVVQPGRSLRLSCAASGLTFSYYGMHWVRQAPGKGLEWVAVISYDGSNKYYADSVKGRFTISRDNSKNTLYLQMNSLRAEDAAVYYCAKDLGGDDYYGMDVWGQGTTVTVSS VL: EIVLTQSPGTLSLSPGERATLSCRASQSVSRTYLAWYQQKPGQAPRLLIYGAFSRATGIPDRFSGSGSGTDFTLTISRLEPEDFAVYYCQQYGSSPYTFGQGTKLEIK
Marked response: 472000
